Measured fold induction at 10 µM of individual entries
system.name: SFRP-1 (Homo sapiens, UniProt Q8N474)
method.description: Cell-based assay for in vitro measurement of SFRP-1/SARP2 antagonist activity (U2OS cells co-transfected with 16x TCF-tk-Luciferase reporter, Wnt and hSFRP-1)
protocol.conditions: U2OS, read-out: Fold Induction with SFRP-1, U2OS cells, single dose 10 μM, luciferase reporter, fold induction over SFRP-1 control
Please reply with the value in numeric form only.

A selection of reference data follows.
O=S(=O)(NC1CCN(C(=S)c2ccc(C(F)(F)F)cc2)CC1)c1cc(S(=O)(=O)c2ccccc2)ccc1C(F)(F)F    1.7
COC(=O)CNC(=S)N1CCC(NS(=O)(=O)c2cc(S(=O)(=O)c3ccc(F)cc3)ccc2C(C)C)CC1    3.7
CC(C)c1ccc(S(=O)(=O)c2ccc(F)cc2)cc1S(=O)(=O)NC1CCN(C(=S)Nc2cccc([N+](=O)[O-])c2)CC1    2.9
Cc1ccc(C(=O)NCCNS(=O)(=O)c2cc(S(=O)(=O)c3ccccc3)ccc2C(F)(F)F)cc1    1.3
O=C(c1cc(F)cc(F)c1)N1CCC(NS(=O)(=O)c2cc(S(=O)(=O)c3ccccc3)ccc2C(F)(F)F)CC1    3.7

Return fold induction at 10 µM for the following molecule: Cc1cc(C)c(S(=O)(=O)c2ccccc2)cc1S(=O)(=O)NC1CCNCC1
2.4

Note down fold induction at 10 µM recorded for CN(C)c1ccc(S(=O)(=O)c2ccc(C(F)(F)F)c(S(=O)(=O)NC3CCNCC3)c2)cc1
4.7

====

# reported fold induction at 15 µM; entries follow
system.name: SFRP-1 (Homo sapiens)
Sequence (Q8N474 32-314): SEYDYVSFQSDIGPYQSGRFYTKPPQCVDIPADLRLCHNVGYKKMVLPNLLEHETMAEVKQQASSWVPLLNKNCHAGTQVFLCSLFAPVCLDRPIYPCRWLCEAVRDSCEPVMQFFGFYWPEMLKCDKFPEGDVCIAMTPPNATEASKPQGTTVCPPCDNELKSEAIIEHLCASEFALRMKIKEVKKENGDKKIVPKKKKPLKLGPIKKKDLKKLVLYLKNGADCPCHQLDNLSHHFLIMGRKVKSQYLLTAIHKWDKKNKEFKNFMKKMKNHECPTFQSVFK
method.description: Cell-based assay for in vitro measurement of SFRP-1/SARP2 antagonist activity (U2OS cells co-transfected with 16x TCF-tk-Luciferase reporter, Wnt and hSFRP-1)
protocol.conditions: U2OS, read-out: Fold Induction without SFRP-1, Conc 15 μM; single dose; luciferase reporter; cells without SFRP-1 (specificity control)
Reply briefly: the number, and no unit.

The cases that follow already have their fold induction at 15 µM on record.
CCCc1ccc(S(=O)(=O)c2ccccc2)cc1S(=O)(=O)NC1CCOCC1    1.1
O=C(N1CCOCC1)N1CCC(NS(=O)(=O)c2cc(S(=O)(=O)c3ccccc3)ccc2Cl)CC1    1.1
O=S(=O)(c1ccccc1)c1ccc(Cl)c(S(=O)(=O)N2CCC(N3CCCC3)CC2)c1    1.7

State, in one line, measured fold induction at 15 µM of CNc1ccc(S(=O)(=O)c2ccc(C(C)C)c(S(=O)(=O)NCC3CCOCC3)c2)cc1
1.1

====

system.name: SFRP-1 (Homo sapiens, UniProt Q8N474)
method.description: Cell-based assay for in vitro measurement of SFRP-1/SARP2 antagonist activity (U2OS cells co-transfected with 16x TCF-tk-Luciferase reporter, Wnt and hSFRP-1)
protocol.conditions: U2OS, read-out: Fold Induction without SFRP-1, Conc 15 μM; without SFRP-1, single dose
Recorded fold induction at 15 µM, one value per entry.
Please reply with the number alone, leaving off any unit.

Cc1ccc(S(=O)(=O)c2ccc(F)cc2)cc1S(=O)(=O)NCCC#N    1
CC(C)c1ccc(S(=O)(=O)c2cccc3c(N(C)C)cccc23)cc1S(=O)(=O)NCCc1ccccn1    1
C=CCN(CCc1ccccc1F)S(=O)(=O)c1cc(S(=O)(=O)c2ccc(C)cc2)ccc1C    1
O=S(=O)(NCCc1ccccn1)c1cc(S(=O)(=O)c2ccc(F)cc2)ccc1C1CCCCC1    1
CC(C)c1ccc(S(=O)(=O)c2ccc(C(C)(C)C)cc2)cc1S(=O)(=O)NCCc1ccccn1    1
Cc1ccc(S(=O)(=O)c2ccccc2)cc1S(=O)(=O)N1CCN(CCN2CCCC2)CC1    1.6
CC[C@H](C)[C@@H](CO)Nc1ccc(S(=O)(=O)c2ccc(C)c(S(=O)(=O)NCCCn3ccnc3)c2)cc1    1
Cc1ccc(S(=O)(=O)c2ccc(N3CCOCC3)cc2)cc1S(=O)(=O)NCCCn1ccnc1    1
Cc1ccc(S(=O)(=O)c2cccs2)cc1S(=O)(=O)NCCCn1ccnc1    1.1

Please examine the following record next.
In one line, give reported fold induction at 15 µM of the entry Cc1ccc(S(=O)(=O)c2ccccc2)cc1S(=O)(=O)NCCCN1CCOCC1 .
0.5

====

Below are molecules with their pIC50 as measured on SFRP-1 (Homo sapiens, UniProt Q8N474).
# pIC50 is unitless: minus log10 of the molar concentration; print number only

Solved entries (count: 5):
CCc1ccc(S(=O)(=O)c2ccccc2)cc1S(=O)(=O)NC1CCNCC1 [Example 921]    5.40
COc1cccc(OC)c1C(=O)N1CCC(NS(=O)(=O)c2cc(S(=O)(=O)c3ccccc3)ccc2C(F)(F)F)CC1 [Example 707]    6.70
Cc1ccc(S(=O)(=O)c2ccccc2)cc1S(=O)(=O)NC1CCN(S(=O)(=O)c2cn(C)cn2)CC1 [Example 481]    5.92
O=S(=O)(NCC(O)c1cccnc1)c1cc(S(=O)(=O)c2ccccc2)ccc1C(F)(F)F (stereo not drawn) [Example 741]    6.52
O=C(O)c1cccc(N2CCC(CCNS(=O)(=O)c3cc(S(=O)(=O)c4ccccc4)ccc3C(F)(F)F)CC2)c1 [Example 957]    6.52

Give recorded pIC50. COC(=O)C1CCCC(NS(=O)(=O)c2cc(S(=O)(=O)c3ccccc3)ccc2C(F)(F)F)C1 (stereo not drawn) [Example 945]
6.05

Retrieve pIC50 measured for CNc1ccc(S(=O)(=O)c2ccc(C(C)C)c(S(=O)(=O)NCCc3ccccn3)c2)cc1Cl [Example 605] and print it.
6.22

Answer with reported pIC50 of C[C@H](C(N)=O)N1CCC(NS(=O)(=O)c2cc(S(=O)(=O)c3ccccc3)ccc2C(F)(F)F)CC1 [Example 1038]
7.00

Check the records and state pIC50 for CC(C)c1ccc(S(=O)(=O)c2ccc(NCCC#N)cc2)cc1S(=O)(=O)NCC1CCOCC1 [Example 536]
6.40

====

Form: system (SFRP-1 (Homo sapiens, UniProt Q8N474)), quantity (pIC50), values below.
pIC50 here is simply -log10 of the concentration when that concentration is written in mol/L.

Below, 3 compounds whose answers are already recorded.
CCCc1ccc(S(=O)(=O)c2ccccc2)cc1S(=O)(=O)NCCc1ccncc1 [Example 859]    6.22
CN1[C@@H]2CC[C@H]1CC(NS(=O)(=O)c1cc(S(=O)(=O)c3ccccc3)ccc1C(F)(F)F)C2 (relative stereo) [Example 1035]    6.52
O=C(O)CCCNS(=O)(=O)c1cc(S(=O)(=O)c2ccccc2)ccc1C(F)(F)F [Example 893]    6.15

Consider the additional compound presented here.
Provide measured pIC50 value, entry: CNc1ccc(S(=O)(=O)c2ccc(C(C)C)c(S(=O)(=O)NCCc3ccccn3)c2)c(C)c1 [Example 599]
6.22

====

system.name: SFRP-1 (Homo sapiens, UniProt Q8N474)
method.description: Cell-based assay for in vitro measurement of SFRP-1/SARP2 antagonist activity (U2OS cells co-transfected with 16x TCF-tk-Luciferase reporter, Wnt and hSFRP-1)
protocol.conditions: U2OS, read-out: Fold Induction without SFRP-1, Conc 15 μM; without SFRP-1, single dose
Property: fold induction at 15 µM; scope: individual compounds
Output spec: single numeric token, no unit.

The examples below pair each entry with its known result.
Cc1ccc(S(=O)(=O)c2ccccc2)cc1S(=O)(=O)NC1CC1    1.2
Cc1ccc(S(=O)(=O)c2ccc(C(C)C)cc2)cc1S(=O)(=O)NCCCn1ccnc1    1

Next:
Query fold induction at 15 µM for Cc1ccc(S(=O)(=O)c2cccc(C#N)c2)cc1S(=O)(=O)NCCc1ccccn1
1.3

====

Reported fold induction at 15 µM by item:
system.name: SFRP-1 (Homo sapiens)
method.description: Cell-based assay for in vitro measurement of SFRP-1/SARP2 antagonist activity (U2OS cells co-transfected with 16x TCF-tk-Luciferase reporter, Wnt and hSFRP-1);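 note: U2OS cells co-transfected with a TCF-tk luciferase reporter, a Wnt vector, hSFRP-1 or empty vector and CMV-βgal, luciferase luminescence read in cell lysates alongside βgal activity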
protocol.conditions: U2OS, read-out: Fold Induction without SFRP-1, Conc 15 μM; single dose; luciferase reporter; cells without SFRP-1 (specificity control)
Just the number, please, no unit after it.

CC(C)c1ccc(S(=O)(=O)c2ccc(F)cc2)cc1S(=O)(=O)NC1CCCC1    1
Cc1ccc(S(=O)(=O)c2ccc(F)cc2)cc1S(=O)(=O)NC1CCN(C(=O)N2CCOCC2)CC1    0.9
CC(C)c1ccc(S(=O)(=O)c2ccc(F)cc2)cc1S(=O)(=O)NC1CCCCC1    1
CC(=O)c1cccc(S(=O)(=O)c2ccc(C(C)C)c(S(=O)(=O)NCCc3ccccn3)c2)c1C    1
CC(C)c1cc(C(C)C)c(S(=O)(=O)c2ccccc2)cc1S(=O)(=O)NC1CCCC1    1
CCCc1ccc(S(=O)(=O)c2ccccc2)cc1S(=O)(=O)NCCC1CCOCC1    1.1
CC(C)c1ccc(S(=O)(=O)c2ccc(F)cc2)cc1S(=O)(=O)NCCc1cccnc1    1.1
CC(C)c1ccc(S(=O)(=O)c2ccc(F)c(Cl)c2)cc1S(=O)(=O)NCCc1ccccn1    1.4

Given CC(C)c1cc(C(C)C)c(S(=O)(=O)c2ccc(F)cc2)cc1S(=O)(=O)NCCc1cccnc1 , respond with its fold induction at 15 µM.
1

Supply measured fold induction at 15 µM of Cc1cc(F)ccc1S(=O)(=O)c1ccc(C(C)C)c(S(=O)(=O)NCCc2ccccn2)c1 in your reply.
1.3

Please list fold induction at 15 µM recorded for the compound CC(C)c1ccc([S+]([O-])c2ccccc2)cc1S(=O)(=O)NCCc1ccccn1 (centres unmarked)
1.1
